system: LOX IMVI; test: NCI tumour cell line growth inhibition, 48 h
Activity calls are given as the source filed them. Rule as the data show it: active = GI50 up to about 1.1 µM and inactive = higher.
measuredAttribute: GI50

Below, 6 molecules whose answers are already recorded.
# GI50 of `NNC(=O)c1ccccc1NC(=O)/C(=C/c1ccccc1)NC(=O)c1ccccc1` = 68.1 µM (inactive)

# GI50 of `Cc1ccc(/C=N/Nc2nncc3ccccc23)s1` = > 61.2 µM (inactive)

# GI50 of COC(=O)C1[C@H](C(=O)OC)C1(Br)CBr (some centres not stated) = > 100 µM (inactive)

# GI50 of `CCOC(=O)C/C(N)=C(\C#N)C(=O)OCC` = > 100 µM (inactive)

# GI50 of `COc1ccc2[nH]c3c(c2c1)COc1ccccc1C3=O` = > 100 µM (inactive)

# GI50 of `CC(=O)/N=C1\C=C(NC(C)=O)C(=O)c2ccccc21` = 1.68 µM (inactive)

Could you now look at the following molecule, please?
# GI50 of `CC(=O)c1c2c(cc3c1CC1(Cc4cc5c(cc4C1)CCCC5)C3)CCCC2` = 55.1 µM (inactive)

----------
tested on: U-251; assay: NCI tumour cell line growth inhibition, 48 h
The source made the active and inactive calls. Cut-off read from the data, not from the text of the source: active = GI50 up to about 1.1 µM and inactive = higher.
Choose the fitting class; nothing outside Y (active), N (inactive) is accepted.

Please review the entries below; each comes with its answer.
Assay result, entry `COc1ccc(C=C2C(=O)OC(C)(C)OC2=O)cc1OC` — outcome?
N

Assay result, entry COc1cc(/C=C2\NC(=S)C3Cc4c(OC)c(C)c(OC)c(OC)c4C2N3C)c(OC)c(C)c1OC (stereo not drawn) — outcome?
N

Assay result, entry `Cc1ccc(C(=O)N/N=C(\N=N\c2cccc(Cl)c2)c2ccc(N(CCC#N)CCC#N)cc2C)cc1` — outcome?
N

Assay result, entry `Cc1cnc(SCCN2CCN(C)CC2)nc1-c1cc2ccccc2s1` — outcome?
N

Assay result, entry CC1(C)C2C/C(=C\c3ccccc3)C(=O)C1C2 (stereo not drawn) — outcome?
N

Assay result, entry `O=[N+]([O-])c1cc([N+](=O)[O-])c(/C=C/c2ccc(Cl)c(Cl)c2)cc1/C=C/c1ccc(Cl)c(Cl)c1` — outcome?
N

Assay result, entry `COC(=O)C1=C(C(=O)OC)SC(=C2c3ccsc3-c3sccc32)S1` — outcome?
N

Assay result, entry `COc1ccc(/C=c2\s/c(=C3/SC(=S)N(c4ccccc4)C3=O)n(-c3ccccc3)c2=O)cc1` — outcome?
N

Assay result, entry `O=C(c1ccccc1)c1nnc(C(=O)c2ccccc2)nn1` — outcome?
N

Assay result, entry CC(C)CC(NC(=O)OC(C)(C)C)C(=O)Nc1ccc(Nc2nc(F)nc(-c3c4ccccc4c4n3CCS4)n2)cc1 (stereo not drawn) — outcome?
N

Further cases:
Assay result, entry `Clc1ccc(-c2nc3cc(Cl)ccc3[nH]2)cc1` — outcome?
N

Assay result, entry `COc1ccc(N2C(=O)c3cc([N+](=O)[O-])cnc3S2(=O)=O)cc1` — outcome?
N

Assay result, entry `CN(C)CCCNC(=O)c1cc(NC(=O)CCCn2c3ccccc3c3ccccc32)cn1C` — outcome?
N

----------
Read-out record for HCT-15: GI50

# GI50 of CCCC(=O)c1c(NOC2OCC(OC(C)=O)C(OC(C)=O)C2OC(C)=O)nc(OC)n(C)c1=O (stereo not given) = > 100 µM

Provide each entry's GI50 from the list below.
1. Cc1cn(C2CC(N)C(C(=O)O)O2)c(=O)[nH]c1=O (stereo not given)
2. O=C(/C=C/c1ccc(O)c(O)c1)OCCCc1ccccc1
3. COc1ccc(OC)c(C(=O)/C=C/c2cc(O)c(O)cc2F)c1
4. CC(C)(C)OC/C=C1\C(=O)O[C@H]2C[C@@H](O[Si](C)(C)C(C)(C)C)C[C@@H]12
5. Nc1ncnc2c1sc1nc3ccccc3n12

1: > 100 µM; 2: 3.9 µM; 3: 0.076 µM; 4: > 100 µM; 5: > 100 µM
